Molecular target: Ephrin type-A receptor 3 (Homo sapiens, UniProt P29320)
Sequence (P29320 whole entry): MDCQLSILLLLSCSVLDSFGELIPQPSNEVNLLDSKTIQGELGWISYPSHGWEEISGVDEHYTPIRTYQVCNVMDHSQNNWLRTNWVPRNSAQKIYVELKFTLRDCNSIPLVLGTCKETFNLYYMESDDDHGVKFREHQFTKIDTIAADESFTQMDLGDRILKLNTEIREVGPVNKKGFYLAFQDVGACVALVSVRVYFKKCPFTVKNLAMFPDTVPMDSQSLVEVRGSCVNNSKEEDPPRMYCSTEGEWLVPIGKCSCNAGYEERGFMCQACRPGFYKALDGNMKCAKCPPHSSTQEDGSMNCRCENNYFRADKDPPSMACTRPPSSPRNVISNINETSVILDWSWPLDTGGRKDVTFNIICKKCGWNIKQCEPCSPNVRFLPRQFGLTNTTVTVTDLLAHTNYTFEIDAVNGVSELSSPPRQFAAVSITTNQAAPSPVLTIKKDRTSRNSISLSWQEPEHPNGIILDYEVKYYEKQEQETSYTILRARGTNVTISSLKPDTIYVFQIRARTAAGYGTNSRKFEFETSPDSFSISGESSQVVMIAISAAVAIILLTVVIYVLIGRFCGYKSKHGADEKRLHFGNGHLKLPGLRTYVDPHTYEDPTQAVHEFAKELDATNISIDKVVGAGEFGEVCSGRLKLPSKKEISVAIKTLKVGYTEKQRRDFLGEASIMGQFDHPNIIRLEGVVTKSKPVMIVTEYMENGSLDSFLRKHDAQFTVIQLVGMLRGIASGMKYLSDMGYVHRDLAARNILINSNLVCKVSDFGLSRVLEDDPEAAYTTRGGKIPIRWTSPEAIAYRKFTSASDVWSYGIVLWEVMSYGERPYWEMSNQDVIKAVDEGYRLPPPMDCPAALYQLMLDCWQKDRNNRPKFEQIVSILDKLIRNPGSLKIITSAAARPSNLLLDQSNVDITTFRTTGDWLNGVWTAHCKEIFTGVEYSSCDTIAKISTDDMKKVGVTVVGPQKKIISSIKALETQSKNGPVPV
reported metric: Kd (µM)
Just the number please, in µM, no unit attached.

Req: Provide only the value of recorded Kd for CC(C)(C)n1nc(-c2ccc(Cl)cc2)c2c(N)ncnc21
Resp: 200
